target: insulin receptor (UniProt P06213-2 28-944, limits assumed); assay: not described
Sequence (P06213 other isoform, or with tags, fused parts or gaps limits assumed): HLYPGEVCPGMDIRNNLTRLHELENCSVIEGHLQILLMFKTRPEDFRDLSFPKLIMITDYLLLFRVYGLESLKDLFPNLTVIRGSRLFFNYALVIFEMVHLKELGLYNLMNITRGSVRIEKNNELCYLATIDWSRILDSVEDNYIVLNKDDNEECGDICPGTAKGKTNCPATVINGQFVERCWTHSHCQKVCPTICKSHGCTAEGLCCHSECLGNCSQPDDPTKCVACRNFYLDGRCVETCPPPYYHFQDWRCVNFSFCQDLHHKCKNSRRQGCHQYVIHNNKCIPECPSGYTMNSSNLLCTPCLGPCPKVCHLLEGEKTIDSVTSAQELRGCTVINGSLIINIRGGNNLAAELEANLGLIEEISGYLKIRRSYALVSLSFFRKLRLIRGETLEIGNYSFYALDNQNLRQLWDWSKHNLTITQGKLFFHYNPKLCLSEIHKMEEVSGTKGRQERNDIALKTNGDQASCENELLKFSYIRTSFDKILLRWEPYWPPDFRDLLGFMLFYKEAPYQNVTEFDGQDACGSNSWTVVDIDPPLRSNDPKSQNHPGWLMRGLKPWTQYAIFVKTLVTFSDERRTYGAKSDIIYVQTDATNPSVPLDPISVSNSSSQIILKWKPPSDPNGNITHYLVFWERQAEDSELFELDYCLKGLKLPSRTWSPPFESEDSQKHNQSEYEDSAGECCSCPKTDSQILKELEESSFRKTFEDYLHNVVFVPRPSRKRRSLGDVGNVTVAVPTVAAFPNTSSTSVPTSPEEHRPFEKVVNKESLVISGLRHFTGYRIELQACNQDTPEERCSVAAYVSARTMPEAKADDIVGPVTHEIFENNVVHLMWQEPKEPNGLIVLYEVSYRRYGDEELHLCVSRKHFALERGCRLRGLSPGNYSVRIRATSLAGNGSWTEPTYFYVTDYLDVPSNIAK
Experimental Endpoint: binding result

NFYQCIEQLSSGPAEKSRGQWQECRTG [Rm4-411]    no binding
NFYQCIEALVGVPAEKSRGQWQECRTG [Rm4-46]    no binding
NFYQCIERLVTGPAEKSRGQWQECRTGG [Rm4-310]    no binding
NFYQCIDLLMAYPAEKSRGQWQECRTGG [Rm4-39]    no binding
NFYQCIEQLALRPAEKSRGQWQECRTGG [Rm4-33]    no binding
NFYQCIEHLSGSPAEKSRGQWQECRTG [Rm4-44]    no binding

Req: Complete the entry with binding result for NFYQCIEYLAMKPAEKSRGQWQECRTGG [Rm4-314]
Resp: no binding

Req: For the binder NFYQCIEALARTPAEKSRGQWVECRAP [Rm4-417] , report binding result.
Resp: no binding

Req: Output binding result of NFYQCIEMLASHPAEKSRGQWQECRTGG [Rm4-31]
Resp: no binding

Req: Give recorded binding result. NFYQCIESLAGGPAEKSRGQWQECRTG [Rm4-45]
Resp: no binding

Req: Determine its reported binding result: NFYQCIEALSRSPAEKSRGQWQECRTGG [Rm4-319]
Resp: no binding

Req: Could you please provide reported binding result for NFYQCIEMLSLPPAEKSRGQWQECRTG [Rm4-49] ? Thanks!
Resp: no binding

Req: Consider the binder NFYQCIELLSARPAEKSRGQWAECRAG [Rm4-415] and give its recorded binding result.
Resp: no binding

Req: Given NFYQCIEALQSRPAEKSRGQWQECRTGG [Rm4-316] , respond with its binding result.
Resp: no binding

Req: Using the record for NFYQCIEVFWGRPAEKSRGQWQECRTG [Rm4-410] , state its measured binding result.
Resp: no binding
